Hey, just so you know, these numbers are from patent US20200262877A1.

Target: α3β4 (Homo sapiens, UniProt P30926+P32297)
Construct: host or cells: HEK293 or CHO
Sequence (P30926 22-498): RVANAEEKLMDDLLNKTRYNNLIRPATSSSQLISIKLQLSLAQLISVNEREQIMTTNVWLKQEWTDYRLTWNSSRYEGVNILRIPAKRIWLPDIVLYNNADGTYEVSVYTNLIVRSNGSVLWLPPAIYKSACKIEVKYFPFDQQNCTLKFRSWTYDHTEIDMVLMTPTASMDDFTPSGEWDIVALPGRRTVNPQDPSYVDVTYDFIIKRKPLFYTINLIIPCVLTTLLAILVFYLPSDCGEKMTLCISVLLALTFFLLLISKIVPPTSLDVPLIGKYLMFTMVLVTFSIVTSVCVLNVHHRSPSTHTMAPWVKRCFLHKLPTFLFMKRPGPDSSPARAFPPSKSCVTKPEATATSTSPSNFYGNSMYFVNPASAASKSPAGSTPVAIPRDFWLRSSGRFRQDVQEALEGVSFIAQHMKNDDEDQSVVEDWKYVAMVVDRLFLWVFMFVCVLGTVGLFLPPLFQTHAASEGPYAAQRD
Sequence (P32297 32-505): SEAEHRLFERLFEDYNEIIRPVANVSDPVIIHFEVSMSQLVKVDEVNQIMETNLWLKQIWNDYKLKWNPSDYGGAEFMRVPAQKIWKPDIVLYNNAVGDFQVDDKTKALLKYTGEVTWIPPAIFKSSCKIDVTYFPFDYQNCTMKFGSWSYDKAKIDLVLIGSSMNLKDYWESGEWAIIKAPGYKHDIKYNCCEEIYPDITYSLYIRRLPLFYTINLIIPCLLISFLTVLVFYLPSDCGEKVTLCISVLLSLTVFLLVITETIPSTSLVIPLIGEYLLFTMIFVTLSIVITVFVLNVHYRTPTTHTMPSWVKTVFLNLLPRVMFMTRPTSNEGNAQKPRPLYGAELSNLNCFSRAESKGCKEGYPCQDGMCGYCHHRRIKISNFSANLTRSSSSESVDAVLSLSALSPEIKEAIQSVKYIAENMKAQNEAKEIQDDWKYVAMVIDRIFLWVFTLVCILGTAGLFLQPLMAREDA
Assay: Ion channel panel (IonWorks Barracuda): α3β4
Format: cell-based
Conditions: peptide at 0.2 μM; 100% = no change, <100% = inhibition
Procedure: This example describes a method for assaying ion channel activity in cells. Peptides were screened in duplicate at final concentrations of 20 μM and 200 nM, as determined by amino acid analysis, and diluted into HEPES buffered physiological saline (HBPS). HEK293 or CHO cells from the American Type Culture Collection (ATCC) were transfected with the appropriate ion channel before use. […]
metric: Activity of a3b4 with peptide, expressed as a percentage of the reference compound (%)
Entry rule: numbers only, all in %.

substance | value_measured
3 (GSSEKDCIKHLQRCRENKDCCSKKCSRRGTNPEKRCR) [compound 3] | 99
2 (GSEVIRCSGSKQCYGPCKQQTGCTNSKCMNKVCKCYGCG) [compound 2] | 85
34 (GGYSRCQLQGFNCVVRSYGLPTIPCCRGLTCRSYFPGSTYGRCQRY) [compound 34] | 103

Q. Given 24 (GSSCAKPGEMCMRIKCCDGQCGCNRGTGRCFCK) [compound 24] , respond with its Activity of a3b4 with peptide, expressed as a percentage of the reference compound.
A. 101

Q. Supply Activity of a3b4 with peptide, expressed as a percentage of the reference compound value. Item: 19 (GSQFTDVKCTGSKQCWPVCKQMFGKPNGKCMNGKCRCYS) [compound 19]
A. 101

Q. Read off the recorded Activity of a3b4 with peptide, expressed as a percentage of the reference compound for 14 (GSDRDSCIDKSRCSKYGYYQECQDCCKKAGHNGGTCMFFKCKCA) [compound 14]
A. 99

Q. Give Activity of a3b4 with peptide, expressed as a percentage of the reference compound for the following substance: 12 (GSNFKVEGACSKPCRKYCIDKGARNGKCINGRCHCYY) [compound 12]
A. 103

Q. Given 30 (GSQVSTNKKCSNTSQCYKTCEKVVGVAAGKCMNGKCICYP) [compound 30] , respond with its Activity of a3b4 with peptide, expressed as a percentage of the reference compound.
A. 91

Q. Answer with the recorded Activity of a3b4 with peptide, expressed as a percentage of the reference compound of 29 (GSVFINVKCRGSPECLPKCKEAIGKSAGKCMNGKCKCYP) [compound 29] only.
A. 108

====

Biological target: hERG (Homo sapiens, UniProt Q12809)
Sequence (Q12809 whole entry): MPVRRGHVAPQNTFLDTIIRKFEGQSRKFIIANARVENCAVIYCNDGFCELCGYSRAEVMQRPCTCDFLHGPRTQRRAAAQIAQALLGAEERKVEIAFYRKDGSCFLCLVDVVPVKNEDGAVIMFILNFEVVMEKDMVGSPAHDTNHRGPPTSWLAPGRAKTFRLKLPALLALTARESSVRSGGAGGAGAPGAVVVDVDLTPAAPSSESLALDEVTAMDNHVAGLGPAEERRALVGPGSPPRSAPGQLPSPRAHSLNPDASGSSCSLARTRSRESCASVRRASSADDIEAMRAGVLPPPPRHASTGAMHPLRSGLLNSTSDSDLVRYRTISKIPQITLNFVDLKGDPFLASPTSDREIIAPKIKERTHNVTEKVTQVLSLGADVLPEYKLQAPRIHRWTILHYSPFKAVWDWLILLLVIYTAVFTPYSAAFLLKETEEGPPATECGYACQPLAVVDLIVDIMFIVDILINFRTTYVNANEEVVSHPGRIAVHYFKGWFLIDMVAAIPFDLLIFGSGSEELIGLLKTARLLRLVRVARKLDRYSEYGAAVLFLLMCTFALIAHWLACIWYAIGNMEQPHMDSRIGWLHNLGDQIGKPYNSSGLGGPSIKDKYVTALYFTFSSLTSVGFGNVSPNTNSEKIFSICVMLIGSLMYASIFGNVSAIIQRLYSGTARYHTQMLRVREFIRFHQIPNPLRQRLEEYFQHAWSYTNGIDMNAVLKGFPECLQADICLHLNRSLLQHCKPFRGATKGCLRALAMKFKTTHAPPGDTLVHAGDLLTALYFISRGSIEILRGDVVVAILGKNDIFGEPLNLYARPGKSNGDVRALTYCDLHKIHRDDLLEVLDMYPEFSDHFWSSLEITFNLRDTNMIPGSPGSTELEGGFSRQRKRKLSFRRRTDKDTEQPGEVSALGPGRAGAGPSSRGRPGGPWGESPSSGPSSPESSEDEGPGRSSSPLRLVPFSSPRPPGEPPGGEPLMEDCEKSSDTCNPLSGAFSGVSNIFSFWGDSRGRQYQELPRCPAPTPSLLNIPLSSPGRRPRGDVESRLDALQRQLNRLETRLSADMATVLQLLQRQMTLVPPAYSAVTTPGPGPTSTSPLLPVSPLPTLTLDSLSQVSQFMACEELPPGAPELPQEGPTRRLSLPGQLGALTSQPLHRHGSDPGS
Experiment: in vitro
Details: peptide at 0.2 μM; 100% = no change, <100% = inhibition
Respond with true (1) for Activity of hERG with peptide, expressed as a percentage of the reference compound values of 90% and above, false (0) for values below.

Here are 5 substances together with their reported answers.
substance | tested_target | group
34 (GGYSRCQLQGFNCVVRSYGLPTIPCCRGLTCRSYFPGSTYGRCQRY) [compound 34] | hERG (Homo sapiens, UniProt Q12809) | false (0)
25 (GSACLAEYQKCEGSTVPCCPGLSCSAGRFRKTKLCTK) [compound 25] | hERG (Homo sapiens, UniProt Q12809) | false (0)
26 (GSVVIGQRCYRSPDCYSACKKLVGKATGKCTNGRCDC) [compound 26] | hERG (Homo sapiens, UniProt Q12809) | false (0)
38 (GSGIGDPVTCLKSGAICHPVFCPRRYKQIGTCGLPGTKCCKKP) [compound 38] | hERG (Homo sapiens, UniProt Q12809) | false (0)
11 (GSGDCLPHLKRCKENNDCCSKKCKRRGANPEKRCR) [compound 11] | hERG (Homo sapiens, UniProt Q12809) | true (1)

Now look at this entry.
Q. API: above_or_equal(metric=Activity of hERG with peptide, expressed as a percentage of the reference compound, cutoff=90%) for item 15 (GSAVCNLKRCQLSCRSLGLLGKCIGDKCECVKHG) [compound 15]
A. false (0)
